- METHOD DESCRIPTION: Pharmacokinetics: plasma, liver, kidney, smooth muscle levels after Compound 1 dosing
- APPLIED CONDITIONS: plasma, iv, 40 mg/kg
ENDPOINT LABEL: Cmax

For record O=C(Nc1ccc([N+](=O)[O-])cc1Cl)c1cc(Cl)ccc1OCc1ccc(NC(=O)C2CC(F)(F)CN2C(=O)CNC(=O)c2ccnc3ccccc23)cc1 (stereo not shown) [Compound 1] the listed Cmax is ~7 µM

====

- METHOD DESCRIPTION: Pharmacokinetics: plasma, liver, kidney, smooth muscle levels after Compound 1 dosing
- APPLIED CONDITIONS: liver, intravenous, 40 mg/kg
ENDPOINT LABEL: concentration at 1 hr

For record O=C(Nc1ccc([N+](=O)[O-])cc1Cl)c1cc(Cl)ccc1OCc1ccc(NC(=O)C2CC(F)(F)CN2C(=O)CNC(=O)c2ccnc3ccccc23)cc1 (stereo not shown) the listed concentration at 1 hr is ~100 µM

====

- METHOD DESCRIPTION: Pharmacokinetics: plasma, liver, kidney, smooth muscle levels after Compound 1 dosing
- APPLIED CONDITIONS: plasma, intravenous, 40 mg/kg
ENDPOINT LABEL: half-life

For record O=C(Nc1ccc([N+](=O)[O-])cc1Cl)c1cc(Cl)ccc1OCc1ccc(NC(=O)C2CC(F)(F)CN2C(=O)CNC(=O)c2ccnc3ccccc23)cc1 (stereo not shown) the listed half-life is 3 to 4 h

====

- METHOD DESCRIPTION: Pharmacokinetics: plasma, liver, kidney, smooth muscle levels after Compound 1 dosing
- APPLIED CONDITIONS: plasma, po, 40 mg/kg
ENDPOINT LABEL: Cmax

For record O=C(Nc1ccc([N+](=O)[O-])cc1Cl)c1cc(Cl)ccc1OCc1ccc(NC(=O)C2CC(F)(F)CN2C(=O)CNC(=O)c2ccnc3ccccc23)cc1 (stereo not shown) the listed Cmax is ~400 nM

====

- METHOD DESCRIPTION: Pharmacokinetics: plasma, liver, kidney, smooth muscle levels after Compound 1 dosing
- APPLIED CONDITIONS: kidney, oral, 40 mg/kg
ENDPOINT LABEL: concentration at 1 hr

For record O=C(Nc1ccc([N+](=O)[O-])cc1Cl)c1cc(Cl)ccc1OCc1ccc(NC(=O)C2CC(F)(F)CN2C(=O)CNC(=O)c2ccnc3ccccc23)cc1 (stereo not shown) the listed concentration at 1 hr is ~1000 nM

====

- METHOD DESCRIPTION: Pharmacokinetics: plasma, liver, kidney, smooth muscle levels after Compound 1 dosing
- APPLIED CONDITIONS: plasma, po, 40 mg/kg
ENDPOINT LABEL: bioavailability

For record O=C(Nc1ccc([N+](=O)[O-])cc1Cl)c1cc(Cl)ccc1OCc1ccc(NC(=O)C2CC(F)(F)CN2C(=O)CNC(=O)c2ccnc3ccccc23)cc1 (stereo not shown) the listed bioavailability is 5 to 10%

====

- METHOD DESCRIPTION: Pharmacokinetics: plasma, liver, kidney, smooth muscle levels after Compound 1 dosing
- APPLIED CONDITIONS: liver, po, 40 mg/kg
ENDPOINT LABEL: bioavailability

For record O=C(Nc1ccc([N+](=O)[O-])cc1Cl)c1cc(Cl)ccc1OCc1ccc(NC(=O)C2CC(F)(F)CN2C(=O)CNC(=O)c2ccnc3ccccc23)cc1 (stereo not shown) the listed bioavailability is ~10%
